Attribution: patent US10246442B2

target: PHD2181-417 (Homo sapiens (Human), UniProt Q9GZT9)
Sequence (Q9GZT9 181-417): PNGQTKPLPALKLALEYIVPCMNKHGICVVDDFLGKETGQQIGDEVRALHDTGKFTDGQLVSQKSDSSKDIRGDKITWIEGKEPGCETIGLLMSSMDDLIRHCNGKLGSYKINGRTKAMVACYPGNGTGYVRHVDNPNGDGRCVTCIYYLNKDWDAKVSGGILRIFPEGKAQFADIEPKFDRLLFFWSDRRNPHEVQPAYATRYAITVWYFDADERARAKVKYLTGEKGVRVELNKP
protocol.notes: PHD enzymatic assay ([14C]-succinic acid production)
Assay type: biochemical
study.conditions: purified PHD2181-417, HIF-1α peptide substrate, 30 min pre-incubation; average of results
Listed here are molecules together with their documented Enzyme pIC50.
reported.property: Enzyme pIC50

query.smiles | numeric.result
O=C(O)c1cnn(-c2nc(NC3CC3)c3cc(OC4CCCCC4)ccc3n2)c1 | 6.8
O=C(O)c1cnn(-c2nc(N3CCCCC3)c3cc(C4CCCCC4)ccc3n2)c1 | 7.1
O=C(O)c1cnn(-c2nc(N3CCOCC3)c3cc(-c4ccccc4)ccc3n2)c1 | 6.5
CCN(CC)c1nc(-n2cc(C(=O)O)cn2)nc2ccc(Cc3ccccc3)cc12 | 7.1
CC(C)c1cc2c(N(C)C)nc(-n3cc(C(=O)O)cn3)nc2cc1Cl | 7.4
O=C(O)c1cnn(-c2nc(N3CCCCCC3)c3cc(Oc4ccc(Cl)cc4)ccc3n2)c1 | 7.5
O=C(O)c1cnn(-c2nc(NC3CCOCC3)c3cc(Oc4ccccc4)ccc3n2)c1 | 6.5
O=C(O)c1cnn(-c2nc(NC3CCOCC3)c3cc(-c4ccccc4)ccc3n2)c1 | 6.2

###

target: PHD2181-417 (Homo sapiens (Human), UniProt Q9GZT9)
protocol.notes: PHD enzymatic assay ([14C]-succinic acid production)
Type: biochemical
study.conditions: purified PHD2181-417, HIF-1α peptide substrate, 30 min pre-incubation; average of results
Listed here are compounds together with their documented Enzyme pIC50.
reported.property: Enzyme pIC50

query.smiles | result
O=C(O)c1cnn(-c2nc(N3CCCCCC3)c3cc(C4CCCCC4)ccc3n2)c1 | 7.1
O=C(O)c1cnn(-c2nc(NCC3CCCCC3)c3cc(C4CCCCC4)ccc3n2)c1 | 6.9
O=C(O)c1cnn(-c2nc(N3CCCC3)c3cc(Oc4ccc(Cl)cc4)ccc3n2)c1 | 7.3
O=C(O)c1cnn(-c2nc(NC3CCOCC3)c3cc(Oc4ccc(Cl)cc4)ccc3n2)c1 | 6.9
Cc1cccc(C)c1Oc1cc2c(N3CCSCC3)nc(-n3cc(C(=O)O)cn3)nc2cc1F | 7.0
O=C(O)c1cnn(-c2nc(NC3CC3)c3ccc(Oc4ccccc4)cc3n2)c1 | 6.3
Nc1nc(-n2cc(C(=O)O)cn2)nc2ccc(C3CCCCC3)cc12 | 7.5
O=C(O)c1cnn(-c2nc(NC3CC3)c3cc(-c4ccccc4)ccc3n2)c1 | 6.5
CC(=O)NC1CCN(c2nc(-n3cc(C(=O)O)cn3)nc3ccc(Oc4ccc(Cl)cc4)cc23)CC1 | 7.1
O=C(O)c1cnn(-c2nc(N3CCCCC3)c3ccc(-c4ccccc4)cc3n2)c1 | 6.1
CN(C)c1nc(-n2cc(C(=O)O)cn2)nc2cc(-c3ccccc3)ccc12 | 6.0
O=C(O)c1cnn(-c2nc(NC3CC3)c3cc(OC4CCCCC4)c(Cl)cc3n2)c1 | 7.0
O=C(O)c1cnn(-c2nc(N3CCCC3)c3ccc(Oc4ccccc4)cc3n2)c1 | 7.3
CC(C)c1ccc2nc(-n3cc(C(=O)O)cn3)nc(N(C)C)c2c1 | 7.0
O=C(O)c1cnn(-c2nc(N3CCCC3)c3cc(OC4CCCCC4)c(Cl)cc3n2)c1 | 7.1
CC(C)(C)Nc1nc(-n2cc(C(=O)O)cn2)nc2cc(Oc3ccccc3)ccc12 | 6.3
CNc1nc(-n2cc(C(=O)O)cn2)nc2ccc(C3CCCCC3)cc12 | 7.1
